# procedureText: Intrinsic clearance in human liver microsomes at 2 uM assessed per mg of protein
# Assay type: ADME, Microsome
# measurementConditions: read-out: CLH
measureName: microsomal CLint at 2 µM

// microsomal CLint at 2 µM lookup, key: Cn1cc(C#N)cc1-c1c2c(=O)n(CC#CCn3cccn3)c(=O)n(CC3CC3)c2nn1Cc1ccnc2ccc(Cl)cc12
> 100 µL/min/mg

// microsomal CLint at 2 µM lookup, key: C#CCn1c(=O)c2c(-c3cc(C#N)cn3C)n(Cc3ccnc4ccc(Cl)cc34)nc2n(CC2CC2)c1=O
< 14 µL/min/mg

// microsomal CLint at 2 µM lookup, key: CC(C)Cn1c(=O)n(C)c(=O)c2c(-c3cccn3C)n(Cc3ccnc4ccc(Cl)cc34)nc21
> 100 µL/min/mg

// microsomal CLint at 2 µM lookup, key: CCn1c(=O)c2c(-c3cc(C#N)cn3C)n(Cc3ccnc4ccc(Cl)cc34)nc2n(CC2CC2)c1=O
25 µL/min/mg

// microsomal CLint at 2 µM lookup, key: CCn1c(=O)c2c(-c3nc(C#N)cn3C)n(Cc3ccnc4ccc(Cl)cc34)nc2n(CC2CC2)c1=O
51 µL/min/mg

More entries:
// microsomal CLint at 2 µM lookup, key: Cn1cc(C#N)cc1-c1c2c(=O)n(C)c(=O)n(CC3CC3)c2nn1Cc1ccnc2ccc(Cl)cc12
14 µL/min/mg

// microsomal CLint at 2 µM lookup, key: Cc1oc(C#N)cc1-c1c2c(=O)n(C)c(=O)n(CC3CC3)c2nn1Cc1ccnc2ccc(Cl)cc12
38 µL/min/mg

// microsomal CLint at 2 µM lookup, key: C#CC(C)n1c(=O)c2c(-c3cc(C#N)cn3C)n(Cc3ccnc4ccc(Cl)cc34)nc2n(CC2CC2)c1=O (configuration not stated)
91 µL/min/mg
